- Assay Explanation: Tested for half life in male Sprague-Dawley rats dosed at 10 mg/kg orally
- Assay type: ADME, organism-based
- Set-up: dose 10 mg/kg, route oral
- Experimental Context: rat, in vivo, po
Here, each record is paired with measured half-life data.
Reported Endpoint: half-life (min)

>>> df
                                   compound  reported_endpoint  quantitative_result
0  N#Cc1ccc(OCc2ccc3c(c2)OCO3)cc1OC(C(=O)O)c1ccccc1Cl (centres undefined)          half-life                  378
1  N#Cc1ccc(OCc2ccsc2)cc1OC(C(=O)O)c1ccccc1Cl (centres undefined)          half-life                  300
2  Cc1ccccc1C(Oc1cc(OCc2ccc3c(c2)OCO3)ccc1C#N)C(=O)[O-].[Na+] (centres undefined)          half-life                  168
3  Cc1ccccc1C(Oc1cc(OCc2ccncc2)ccc1C#N)C(=O)[O-].[Na+] (centres undefined)          half-life                   12

----------
- Assay Explanation: Tested for bioavailability in male Beagle dogs dosed at 10 mg/kg orally
- Assay type: ADME, organism-based, Canis lupus familiaris
- Experimental Context: dog, in vivo, po, read-out: Bioavailabiility
Reported Endpoint: bioavailability (%)

                                   compound  reported_endpoint  quantitative_result
0  Cc1ccccc1C(Oc1cc(OCc2ccc3c(c2)OCO3)ccc1C#N)C(=O)[O-].[Na+] (stereo unspecified)    bioavailability                   89

----------
- Species on record: Rattus norvegicus
- Assay Explanation: Tested for inhibition of ET-1 induced contraction against isolated Rat aortic rings denuded of the endothelium.
- Type: functional, Aorta
Reported Endpoint: pKb

>>> df
                                   molecule  result
0  N#Cc1ccc(OCc2ccc3c(c2)OCO3)cc1OC(C(=O)O)c1ccccc1 (stereo not drawn)     7.4
1  N#Cc1ccc(OCc2ccc3c(c2)OCO3)cc1OC(C(=O)O)c1ccccc1C(F)(F)F (stereo not drawn)     7.4
2  N#Cc1ccc(OCc2ccsc2)cc1OC(C(=O)O)c1ccccc1 (stereo not drawn)    7.24
3  Cc1ccccc1C(Oc1cc(OCc2ccc3ncoc3c2)ccc1C#N)C(=O)O (stereo not drawn)     7.8
4  Cc1ccccc1C(Oc1cc(OCc2ccc3c(c2)OCO3)ccc1C#N)C(=O)[O-].[Na+] (stereo not drawn)     8.1
5  N#Cc1ccc(OCc2ccncc2)cc1OC(C(=O)O)c1ccccc1Cl (stereo not drawn)     7.7
6  N#Cc1ccc(OCc2ccc3ncoc3c2)cc1OC(C(=O)O)c1ccccc1Cl (stereo not drawn)     7.5
7  Cc1ccccc1C(Oc1cc(OCc2ccsc2)ccc1C#N)C(=O)O (stereo not drawn)     7.9

----------
- Organism: Rattus norvegicus
- Assay Explanation: Tested for inhibition of ET-1 induced contraction against isolated Rat aortic rings denuded of the endothelium.
- Assay type: functional, Aorta
Lab note: anything with pKb at or over 8 counts as criterion met; the rest go in criterion not met.

                                   compound           category
0  N#Cc1ccc(OCc2ccsc2)cc1OC(C(=O)O)c1ccccc1Cl (stereo not given)  criterion not met
1  Cc1ccccc1C(Oc1cc(OCc2ccncc2)ccc1C#N)C(=O)O (stereo not given)  criterion not met
2  Cc1ccccc1[C@H](Oc1cc(OCc2ccncc2)ccc1C#N)C(=O)O      criterion met

----------
- Target System: Endothelin-1 receptor (Rattus norvegicus)
- Sequence (P26684 whole entry): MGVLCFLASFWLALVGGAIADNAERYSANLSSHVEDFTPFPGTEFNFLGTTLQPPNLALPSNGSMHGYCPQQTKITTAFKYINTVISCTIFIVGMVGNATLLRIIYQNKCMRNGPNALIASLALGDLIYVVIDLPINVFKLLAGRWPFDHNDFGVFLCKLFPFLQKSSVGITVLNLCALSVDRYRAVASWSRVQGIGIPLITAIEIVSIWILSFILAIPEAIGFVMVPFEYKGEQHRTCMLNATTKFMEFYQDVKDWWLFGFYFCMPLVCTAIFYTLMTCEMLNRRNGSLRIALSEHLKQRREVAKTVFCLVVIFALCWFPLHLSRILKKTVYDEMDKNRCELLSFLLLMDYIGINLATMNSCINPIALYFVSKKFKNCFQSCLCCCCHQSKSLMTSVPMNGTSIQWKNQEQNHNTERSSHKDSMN
- Assay Explanation: In vitro ability to antagonise the binding of [125I]ET1 to the rat aortic A10 cell membrane endothelin A receptor.
Reported Endpoint: log10(IC50) (log10 of the value in nM)

>>> df
                                   compound                             target_system  reported_endpoint  quantitative_result
0  N#Cc1ccc(OCc2ccsc2)cc1OC(C(=O)O)c1ccccc1Cl (stereo unspecified)  Endothelin-1 receptor (Rattus norvegicus)        log10(IC50)                 1.23
1  N#Cc1ccc(OCc2ccsc2)cc1OC(C(=O)O)c1ccccc1Br (stereo unspecified)  Endothelin-1 receptor (Rattus norvegicus)        log10(IC50)                 1.71
2  N#Cc1ccc(OCc2ccsc2)cc1OC(C(=O)O)c1ccccc1C(F)(F)F (stereo unspecified)  Endothelin-1 receptor (Rattus norvegicus)        log10(IC50)                 1.72
3  Cc1ccccc1C(Oc1cc(OCc2ccccc2)ccc1C#N)C(=O)O (stereo unspecified)  Endothelin-1 receptor (Rattus norvegicus)        log10(IC50)                 1.69
4  N#Cc1ccc(OCc2ccsc2)cc1OC(C(=O)O)c1cccc(Cl)c1 (stereo unspecified)  Endothelin-1 receptor (Rattus norvegicus)        log10(IC50)                 1.99
5  N#Cc1ccc(OCc2ccncc2)cc1OC(C(=O)O)c1ccccc1Cl (stereo unspecified)  Endothelin-1 receptor (Rattus norvegicus)        log10(IC50)                 0.78
6  N#Cc1ccc(OCc2ccsc2)cc1OC(C(=O)O)c1ccc(Cl)cc1 (stereo unspecified)  Endothelin-1 receptor (Rattus norvegicus)        log10(IC50)                 2.70
7  N#Cc1ccc(OCc2ccsc2)cc1OC(C(=O)O)c1ccoc1 (stereo unspecified)  Endothelin-1 receptor (Rattus norvegicus)        log10(IC50)                 3.45
8  Cc1ccccc1C(Oc1cc(OCc2ccc3ncoc3c2)ccc1C#N)C(=O)O (stereo unspecified)  Endothelin-1 receptor (Rattus norvegicus)        log10(IC50)                 0.78
9  Cc1ccccc1[C@H](Oc1cc(OCc2ccc3c(c2)OCO3)ccc1C#N)C(=O)O  Endothelin-1 receptor (Rattus norvegicus)        log10(IC50)                 0.78

----------
- Target System: Endothelin-1 receptor (Rattus norvegicus)
- Assay Explanation: In vitro ability to antagonise the binding of [125I]ET1 to the rat aortic A10 cell membrane endothelin A receptor.
pIC50: −log10 of the molar value.
Binary call on pIC50: y from 7 upward, n beneath that.

>>> df
                                   molecule  category
0  Cc1ccccc1C(Oc1cc(OCc2ccsn2)ccc1C#N)C(=O)O (stereo not given)         n
1  N#Cc1ccc(OCc2ccc3ncoc3c2)cc1OC(C(=O)O)c1ccccc1Cl (stereo not given)         y
2  Cc1ccccc1C(Oc1cc(OCc2cccnc2)ccc1C#N)C(=O)O (stereo not given)         y
3  N#Cc1ccc(OCc2ccc3c(c2)OCO3)cc1OC(C(=O)O)c1ccccc1Cl (stereo not given)         y
4  Cc1ccccc1C(Oc1cc(OCc2ccc3c(c2)OCCO3)ccc1C#N)C(=O)O (stereo not given)         n
5  Cc1ccccc1C(Oc1cc(OCc2ccc3c(c2)OCO3)ccc1C#N)C(=O)[O-].[Na+] (stereo not given)         y
6  N#Cc1ccc(OCc2ccnnc2)cc1OC(C(=O)O)c1ccccc1Cl (stereo not given)         y
7  N#Cc1ccc(OCc2ccncc2)cc1OC(C(=O)O)c1ccsc1 (stereo not given)         n

----------
Consider the following compounds and their measured solubility readings.
- Assay Explanation: Measured solubility
- Assay type: ADME, organism-based, Rattus norvegicus
Reported Endpoint: solubility (µg/mL)

In [3]: df
Out[3]:
                                   compound  reported_endpoint      u  measurement_qualifier  quantitative_result
0  Cc1ccccc1C(Oc1cc(OCc2ccc3c(c2)OCO3)ccc1C#N)C(=O)[O-].[Na+] (stereo not drawn)         solubility  µg/mL                      >                20000
1  N#Cc1ccc(OCc2ccc3c(c2)OCO3)cc1OC(C(=O)O)c1ccccc1Cl (stereo not drawn)         solubility  µg/mL                      =                 1680
2  N#Cc1ccc(OCc2ccsc2)cc1OC(C(=O)O)c1ccccc1Cl (stereo not drawn)         solubility  µg/mL                      =                 1190

----------
Entries and their Activity
- Test system: Endothelin receptor type A (Rattus norvegicus)
- Assay Explanation: Activity against Endothelin A receptor in pithed rats after intravenous administration at 25 umol/kg
Reported Endpoint: Activity (µM/kg)

                                   compound  quantitative_result
0  N#Cc1ccc(OCc2ccncc2)cc1OC(C(=O)O)c1ccccc1Cl (stereo not given)                 46.8
1  Cc1ccccc1C(Oc1cc(OCc2ccc3ncoc3c2)ccc1C#N)C(=O)O (stereo not given)                   63
2  N#Cc1ccc(OCc2ccc3c(c2)OCO3)cc1OC(C(=O)O)c1ccccc1 (stereo not given)                  7.6
3  N#Cc1ccc(OCc2ccc3c(c2)OCO3)cc1OC(C(=O)O)c1ccccc1C(F)(F)F (stereo not given)                    9
4  N#Cc1ccc(OCc2ccc3c(c2)OCO3)cc1OC(C(=O)O)c1ccccc1Cl (stereo not given)                 13.8
